Consider the following variants; for each one, report its self-cleavage.
B1: Osa-1-4 twister ribozyme (parent)
chain: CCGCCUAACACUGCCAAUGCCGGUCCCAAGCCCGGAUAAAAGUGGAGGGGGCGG

Variants of: B1
experiment_summary: self-cleavage, relative activity (ratio to wild type); higher = more cleavage; co-transcriptional
Output spec: single numeric token, no unit.

## Task Look up and state reported self-cleavage for CCGCCUCACACUGCCAAUGCCUGUCCCAAGCCCGGAUAAAAGUGGAGGGGGCGG [A7C G22U]
## Result 0.04

## Task Respond only with self-cleavage recorded for CCGCCUGACACUGCCAAUGCCGGUCCCAAGCCCGGAUAAAAGUGGAGGGGGGGG [A7G C52G]
## Result 0.32

## Task Provide self-cleavage value for the following variant: CCGCCUAACACAGCCAAUGCCGGUCCCAAGCCCGGAUAAAAGUGGAUGGGGCGG [G47U U12A]
## Result 0.07

## Task Answer with the recorded self-cleavage of CCGCCUAACACUGCCAAAGCCGGUCCCAAGCCCGGAUAACAGUGGAGGGGGCGG [A40C U18A] only.
## Result 0.07

## Task // Input: CCGCCUAACACUGCCAAUGCCGGGCCCAAGCCCGGAUAAAAGUGGACGGGGCGG [G47C U24G] . Output its self-cleavage only.
## Result 0.01

## Task Answer with the recorded self-cleavage for the variant listed here: CCGCCUAACACUGCCAAUUCCGGUCCCAAGCCCGGAUAAAAGUGGCGGGGGCGG [A46C G19U]
## Result 0.04

## Task # return recorded self-cleavage for entry CCGCCUAACACUGCCCAUGCCGGUCCCAAGCCCGGAUAAAAGUGUAGGGGGCGG [A16C G45U]
## Result 0.09

## Task Return reported self-cleavage. Input variant: CCGCCUAACACUGCCAACGCCGGUCCCAAGCCCUGAUAAAAGUGGAGGGGGCGG [G34U U18C]
## Result 0.31

## Task Fill in self-cleavage for record CCGCCUAACACUGCCAAUGCCGGUACCAAGCCCGGAUAAAAGUGGAGGGGGCAG [C25A G53A]
## Result 0.09

## Task Please look at this variant and report its self-cleavage: CCGCCUAACACUGCCAAUGCCGGUCCAAAGCCGGGAUAAAAGUGGAGGGGGCGG [C27A C33G]
## Result 0.04

## Task Return reported self-cleavage. Input variant: CCGCCUAACACUGCCAACGCCGGUCCUAAGCCCGGAUAAAAGUGGAGGGGGCGG [C27U U18C]
## Result 0.21

## Task Quick one: give measured self-cleavage for CCGCCUAUCACUGCCAAUGCCGGUCCCAACCCCGGAUAAAAGUGGAGGGGGCGG [A8U G30C]
## Result 0.03

## Task Tell us which self-cleavage value is on record for CCGCCUAACACUGCCAAUGCCGGUCCCAAGCCCGGACAAGAGUGGAGGGGGCGG [A40G U37C]
## Result 0.9

## Task Please indicate self-cleavage recorded for CCGCCUAACACUGCAAAUGCCGGUCCCAAGCCCGGAUAAAAGUGGAGGAGGCGG [C15A G49A]
## Result 0.05

## Task Please list self-cleavage recorded for the variant CCGCCUAACUCUGCCAAUGCCGGUCCCAACCCCGGAUAAAAGUGGAGGGGGCGG [A10U G30C]
## Result 0.01

## Task Supply self-cleavage value. Item: CCGCCUAACACUGCCAAUGCCGGUCCCUAGCCGGGAUAAAAGUGGAGGGGGCGG [A28U C33G]
## Result 0.05

## Task Tell us which self-cleavage value is on record for CCGCCUAACACUGCCAAUGCCAGUCCCAAGCCCGGAUAAGAGUGGAGGGGGCGG [A40G G22A]
## Result 0.46

## Task Give reported self-cleavage value for CCGCCUAACACUGCCAAUGCCGGUGCCAAGCCCGGAUAAAACUGGAGGGGGCGG [C25G G42C]
## Result 0.06

## Task Supply self-cleavage value. Item: CCGCCUAACACUGCCAAUGCCGGACCCAAGCCCGGAUAAAAGUGGAGUGGGCGG [G48U U24A]
## Result 0.03

## Task In one line, give reported self-cleavage of the entry CCGCCUAACACUGGCAAUGCCGGUCCCAAGCCCGAAUAAAAGUGGAGGGGGCGG [C14G G35A] .
## Result 0.07

## Task Return self-cleavage (reported value) for this variant: CCGCCUAACACUGCCAAUGCAGGUCCGAAGCCCGGAUAAAAGUGGAGGGGGCGG [C21A C27G]
## Result 0.04

## Task For CCGCCUAACACUGCCAAUGCCGAUCCCAAGCCCGGAUAAAAGUGGAGAGGGCGG [G23A G48A] , write its self-cleavage.
## Result 0.05

## Task Given the variant CCGCCUAACACUGCCAAUGCCGGUCCCAAGCCCGCAUAAAAGUGGAGGGGGCGG [G35C] , write its reported self-cleavage.
## Result 0.72

## Task Identify the reported self-cleavage for the following entry. CCGCCUAACUCUGCCAGUGCCGGUCCCAAGCCCGGAUAAAAGUGGAGGGGGCGG [A10U A17G]
## Result 0.07

## Task Supply recorded self-cleavage for CCGCCUAAGACUGCCAAUGCCGGUCCCAAGCCCGGAUAAAAGUGGAGGGGGCGC [C9G G54C] here.
## Result 0.77

## Task Tell me its self-cleavage given CCGCCUAACACUGCCAAUGCCGGUCCCAAGCCCGGAUAAAAGGGGAGGGGGCGG [U43G] as the entry.
## Result 0.67

## Task Please give measured self-cleavage of the following entry: CCGCCUAACACUGCCAAUGCCGGUCUCAAGCCCGGAUAAAAGUGGAGCGGGCGG [C26U G48C]
## Result 0.1

## Task Note self-cleavage for the variant shown: CCGCCUAACACUGCCAAUGCCGGUCCCAAGCCCGGAUAAAAGUGGAGAGGGUGG [C52U G48A]
## Result 0.15

## Task Query self-cleavage for CCGCCUAACACGGCCAAUGCCGGUCCCAAGCCCUGAUAAAAGUGGAGGGGGCGG [G34U U12G]
## Result 0.05

## Task Tell me measured self-cleavage for CCGCCUAACACUCCCAAUGCCGGUCCCAAGCCCGUAUAAAAGUGGAGGGGGCGG [G13C G35U] please.
## Result 0.04

## Task Identify measured self-cleavage associated with CCGCCUAACAGUGCCAAUGCCGGUCCCAAGCCCGGAUAAAAGUGAAGGGGGCGG [C11G G45A]
## Result 0.05

## Task Identify measured self-cleavage associated with CCGCCUAAGACUGCCAAUGCCGGUCGCAAGCCCGGAUAAAAGUGGAGGGGGCGG [C26G C9G]
## Result 0.09

## Task Give me measured self-cleavage, please, for this variant: CCGCCUAACACUGCCAACGCCGGUCCCAAGCCCGGAUACAAGUGGAGGGGGCGG [A39C U18C]
## Result 0.96

## Task Report self-cleavage for CCGCCUAACACUGCCAAUGCCGGUCCCAAUGCCGGAUAAAAGUGGAGGGGGCGG [C31G G30U]
## Result 0.04
